Each entry below lists one item and its recorded protein stability index value.
B1: RSAD1 (parent)
chain: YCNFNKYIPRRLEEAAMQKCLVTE

Variants of: B1
Experiment: protein stability index of a GFP-peptide fusion (GPS, HEK-293T) (PSI 1-6); higher = more stable;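 also: lentivirally expressed fusions sorted by FACS into six bins by GFP to DsRed ratio, PSI derived from sequencing read proportions per bin multiplied by bin number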
Settings: c terminus: a fixed tail appended
Would you mind answering with just the numeric figure?

Some entries whose results are on file:
>>> observed("L12Y")
3.24
>>> observed("C2Q")
1.87
>>> observed("L21S")
1.42
>>> observed("R11T")
1.95
>>> observed("T23D")
1.78

Using the record for `C2H` , report its protein stability index.
3.01

Report protein stability index for `Y7L` please.
2

Fill blank: measured protein stability index of the variant `E13W` is ____.
2.49

Source of measurements: the supplement of paper PMC10567573
